- MEASURED_ON: recombinant human-Dectin-1 mouse Fc fusion (human) (UniProt Q9BXN2)
- TEST_SUMMARY: Octet BLI, response at X
This listing pairs binders with measured X = 340.
I'd appreciate a reply containing only the number, no unit.

Here's what some known entries look like.
2M24A.1.9 hFab (Fab, V domains shown) VH: QVQLVQSGAEVKKPGASVKVSCKSSGYTFTDYYIHWVRQAPGQGLEWMGWINPNSGDTNYAQKFQGRITMTRDTSISTAYLELSRLRSDDTAVFYCARNSGSASFGYWGQGTLVTVSS VL: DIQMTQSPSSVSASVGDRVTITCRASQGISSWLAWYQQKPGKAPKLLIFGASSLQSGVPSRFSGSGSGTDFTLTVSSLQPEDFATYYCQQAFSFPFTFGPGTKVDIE ... 0.018
2M24A.1.2 hFab (Fab, V domains shown) VH: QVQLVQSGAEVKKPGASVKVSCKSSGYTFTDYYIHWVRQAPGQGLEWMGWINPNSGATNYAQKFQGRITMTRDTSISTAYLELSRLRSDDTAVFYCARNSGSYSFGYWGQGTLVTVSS VL: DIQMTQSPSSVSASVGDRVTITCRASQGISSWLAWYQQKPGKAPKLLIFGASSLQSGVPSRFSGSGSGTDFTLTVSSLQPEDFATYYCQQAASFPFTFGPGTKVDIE ... 0.331
2M24A.1.14 hFab (Fab, V domains shown) VH: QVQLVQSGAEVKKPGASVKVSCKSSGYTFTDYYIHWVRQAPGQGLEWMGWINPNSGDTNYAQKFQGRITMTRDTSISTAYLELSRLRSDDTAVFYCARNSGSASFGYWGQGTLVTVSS VL: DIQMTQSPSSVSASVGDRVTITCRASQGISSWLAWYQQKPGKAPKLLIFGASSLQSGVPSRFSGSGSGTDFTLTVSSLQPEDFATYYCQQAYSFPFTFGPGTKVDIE ... 0.106
2M24A.1.3 hFab (Fab, V domains shown) VH: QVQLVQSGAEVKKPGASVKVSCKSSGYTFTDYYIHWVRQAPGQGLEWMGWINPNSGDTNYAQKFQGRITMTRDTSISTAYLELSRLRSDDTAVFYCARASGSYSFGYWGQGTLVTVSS VL: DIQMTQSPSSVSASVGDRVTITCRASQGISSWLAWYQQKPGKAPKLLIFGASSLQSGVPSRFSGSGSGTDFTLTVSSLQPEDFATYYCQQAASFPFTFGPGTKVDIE ... 0
2M24A.1.12 hFab (Fab, V domains shown) VH: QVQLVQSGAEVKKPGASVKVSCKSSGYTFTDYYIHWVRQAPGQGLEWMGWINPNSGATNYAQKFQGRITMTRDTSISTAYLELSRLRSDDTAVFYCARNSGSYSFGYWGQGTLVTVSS VL: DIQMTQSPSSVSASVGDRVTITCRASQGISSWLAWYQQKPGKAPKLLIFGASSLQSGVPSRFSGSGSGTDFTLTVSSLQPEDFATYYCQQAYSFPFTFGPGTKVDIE ... 0.49
2M24A.1.11 hFab (Fab, V domains shown) VH: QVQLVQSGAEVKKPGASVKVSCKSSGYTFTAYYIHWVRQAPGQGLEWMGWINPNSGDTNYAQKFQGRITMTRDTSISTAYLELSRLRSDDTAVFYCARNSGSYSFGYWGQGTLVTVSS VL: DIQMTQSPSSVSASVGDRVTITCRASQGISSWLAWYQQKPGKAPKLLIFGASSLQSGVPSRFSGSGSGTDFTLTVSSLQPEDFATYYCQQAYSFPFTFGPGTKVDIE ... 0.499

Param item = 2M24A.1.6 hFab (Fab, V domains shown) VH: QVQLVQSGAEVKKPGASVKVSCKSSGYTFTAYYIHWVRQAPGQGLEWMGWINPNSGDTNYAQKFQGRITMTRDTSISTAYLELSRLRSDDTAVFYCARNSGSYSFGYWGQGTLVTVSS VL: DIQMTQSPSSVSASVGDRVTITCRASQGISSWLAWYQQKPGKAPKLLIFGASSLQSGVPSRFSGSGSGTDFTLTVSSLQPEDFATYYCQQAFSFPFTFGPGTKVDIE ; retrieve measured X = 340.
0.493
